tested.target: T1, RXFP1 receptor (UniProt Q9HBX9 1-757, limits assumed)
T1 sequence (looked up): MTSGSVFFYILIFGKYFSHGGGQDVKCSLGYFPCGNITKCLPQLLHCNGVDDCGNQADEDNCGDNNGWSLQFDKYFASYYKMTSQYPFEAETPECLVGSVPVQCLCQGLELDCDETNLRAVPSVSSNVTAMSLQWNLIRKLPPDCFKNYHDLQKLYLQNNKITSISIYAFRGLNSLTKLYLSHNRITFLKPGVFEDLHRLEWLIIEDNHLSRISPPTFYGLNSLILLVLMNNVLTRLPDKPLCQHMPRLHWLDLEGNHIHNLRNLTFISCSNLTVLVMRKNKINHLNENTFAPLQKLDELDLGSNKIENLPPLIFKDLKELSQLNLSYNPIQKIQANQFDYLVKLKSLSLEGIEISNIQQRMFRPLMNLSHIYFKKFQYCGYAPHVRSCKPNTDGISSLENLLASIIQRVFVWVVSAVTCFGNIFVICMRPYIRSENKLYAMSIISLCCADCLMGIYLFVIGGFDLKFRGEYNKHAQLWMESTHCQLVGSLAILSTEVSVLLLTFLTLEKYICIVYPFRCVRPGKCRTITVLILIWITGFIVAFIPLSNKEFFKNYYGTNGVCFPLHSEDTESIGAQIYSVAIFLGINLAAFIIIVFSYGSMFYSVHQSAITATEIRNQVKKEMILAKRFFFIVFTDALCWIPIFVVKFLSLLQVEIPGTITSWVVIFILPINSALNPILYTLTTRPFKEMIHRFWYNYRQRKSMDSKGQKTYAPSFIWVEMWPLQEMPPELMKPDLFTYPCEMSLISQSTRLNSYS
assay.name: cell-based or functional assay
*1 amine or outer side, *2 acyl side, *3 side chain or, on linkers, in order; H or OH if unused. Primed or numbered codes have the meaning given here. Side-chain parts run from the residue outwards. [ ]: non-standard residue; d: D form. The star is where a group is joined. Docosanoyl = CCCCCCCCCCCCCCCCCCCCCC(=O)*; Lys(Me3) = C[N+](C)(C)CCCC[C@H](N)C(=O)O; γGlu = O=C(O)[C@H](CCC(=O)[*:2])N[*:1]; Arg(Me) = CNC(=N)NCCC[C@H](N)C(=O)O; Stearoyl = CCCCCCCCCCCCCCCCCC(=O)*; Palmitoyl = CCCCCCCCCCCCCCCC(=O)*; αMeK = C[C@](N)(CCCCN)C(=O)O; Nle = CCCC[C@H](N)C(=O)O; PEG2′ = PEG2 spacer unit; PEG2″ = not defined here; Aib = CC(C)(N)C(=O)O
value.kind: EC50 (nM), OVCAR 5 cells (cAMP)

binder	EC50 (nM), OVCAR 5 cells (cAMP)
Ac-LEGREKVRAQI[Aib][Aib]EG[Nle]STWS[Aib]RKKK([PEG2″-PEG2″-γGlu-γGlu-γGlu-Stearoyl])-NH2 [peptide of SEQ ID NO: 71]	0.52
Ac-LEGREKVRAQI[Aib][Aib]EG[Nle]STWS[Aib]RKK([PEG2′-γGlu-Palmitoyl])-NH2 [peptide of SEQ ID NO: 53]	15.3
Ac-LEGREKVRAK(Ac)I[Aib][Aib]EG[Nle]STWS[Aib]RKK(Ac)K([PEG2′-PEG2′-PEG2′-γGlu-γGlu-γGlu-Docosanoyl])-NH2 [peptide of SEQ ID NO: 173]	0.19
Ac-LEGREKVRAK(Ac)I[Aib][Aib]EG[Nle]STFS[αMeK][Arg(Me)]AK(Ac)[PEG2″][PEG2″][PEG2″][PEG2″][γGlu][γGlu][γGlu]K([γGlu-Palmitoyl])-NH2 [peptide of SEQ ID NO: 151]	0.14
Ac-LEGREKVRAQI[Aib][Aib]EG[Nle]STWS[Aib]RKK([PEG2′-Palmitoyl])-NH2 [peptide of SEQ ID NO: 50]	75.9
Ac-LEGREKVRLQI[Aib][Aib]EG[Nle]STWT[Aib]RKKK([PEG2″-PEG2″-PEG2″-γGlu-γGlu-γGlu-Stearoyl])-NH2 [peptide of SEQ ID NO: 77]	2.94
Ac-LEGREKVRAK(Ac)I[Aib][Aib]EG[Nle]STWS[Aib]AAK(Ac)K([PEG2′-PEG2′-PEG2′-γGlu-γGlu-γGlu-Stearoyl])-NH2 [peptide of SEQ ID NO: 155]	1.17
Ac-LEGREKVRAK(Ac)I[Aib][Aib]EG[Nle]STWS[Aib]RKK([PEG2′-PEG2′-γGlu-γGlu-γGlu-Palmitoyl])-NH2 [peptide of SEQ ID NO: 59]	28.2

P = Ac-LEGREKVRAK(Ac)I[Aib][Aib]EG[Nle]STWS[αMeK][Arg(Me)][Lys(Me3)]K(Ac)K([PEG2′-PEG2′-PEG2′-γGlu-γGlu-γGlu-Stearoyl])-NH2 [peptide of SEQ ID NO: 138]
Q = Ac-LEGREKVRAK(Ac)I[Aib][Aib]EG[Nle]STFS[αMeK]RAK(Ac)K([PEG2′-PEG2′-PEG2′-PEG2′-γGlu-γGlu-γGlu-γGlu-Palmitoyl])-NH2 [peptide of SEQ ID NO: 154]
[ask] Input pair: P , Q . Output: entry with lower EC50 (nM), OVCAR 5 cells (cAMP). Selection: enter the item's label.
[reply] P
(P: 0.02 nM, Q: 0.4 nM)
